Test system: HT29 colon
Experiment: NCI tumour cell line growth inhibition, 48 h
Recorded measurements of TGI, one per entry

[
  {
    "MOLECULE": "Clc1ccc(N2COOC3(OOC2)C2CC4CC(C2)CC3C4)cc1",
    "TGI": "> 60.1 µM"
  },
  {
    "MOLECULE": "CC1(C)C2CC1C(/C=N\\OCC(=O)O)=CC2=O (stereo unspecified)",
    "TGI": "> 100 µM"
  },
  {
    "MOLECULE": "CCOC(=O)c1nc2cc(F)c(F)cc2nc1NCc1cc(OC)c(OC)c(OC)c1",
    "TGI": "> 100 µM"
  },
  {
    "MOLECULE": "Cc1ccc(/C(O)=C/c2nc3ccccc3nc2NC23CC4CC(CC(C4)C2)C3)cc1",
    "TGI": "> 10 µM"
  },
  {
    "MOLECULE": "O=c1[nH]nc(Cc2ccccc2)n1N=C1CCCCC1",
    "TGI": "> 100 µM"
  },
  {
    "MOLECULE": "CC(C)OP(=O)(OC(C)C)c1nn(-c2ccc([N+](=O)[O-])cc2)c(=N)s1",
    "TGI": "> 100 µM"
  }
]

###

Tested on: NCI-H226 lung
Assay: NCI tumour cell line growth inhibition, 48 h
Reported TGI values for the following compounds.

[
  {
    "COMPOUND": "CC1(C)C2CC1C(/C=N\\OCC(=O)O)=CC2=O (stereo not given)",
    "TARGET OR TEST SYSTEM": "NCI-H226 lung",
    "TGI": "> 100 µM"
  },
  {
    "COMPOUND": "CNc1nc2c(C)ccc3nc(N(C)C)nc-3c2n1C",
    "TARGET OR TEST SYSTEM": "NCI-H226 lung",
    "TGI": "> 10 µM"
  },
  {
    "COMPOUND": "Cc1cc(N(CCC#N)CCC#N)ccc1N=Nc1ccccc1[N+](=O)[O-]",
    "TARGET OR TEST SYSTEM": "NCI-H226 lung",
    "TGI": "> 100 µM"
  },
  {
    "COMPOUND": "COc1ccc(/C=C\\c2cc(OC)c(OC)c(OC)c2)cc1NC(=O)[C@@H](N)CO",
    "TARGET OR TEST SYSTEM": "NCI-H226 lung",
    "TGI": "> 100 µM"
  },
  {
    "COMPOUND": "C=C[C@@]1(C)CC(=O)[C@]2(O)[C@@]3(C)[C@@H](OC(C)=O)CCC(C)(C)[C@@H]3[C@H](O)[C@H](OC(C)=O)[C@@]2(C)O1",
    "TARGET OR TEST SYSTEM": "NCI-H226 lung",
    "TGI": "> 100 µM"
  }
]

###

Tested on: UO-31 renal
Experiment: NCI tumour cell line growth inhibition, 48 h

[
  {
    "COMPOUND": "N#CC12CCC(O)C(CC1)C2=O (centres undefined)",
    "TGI": "> 100 µM"
  },
  {
    "COMPOUND": "O=C1c2[nH]cc(CN[C@@H]3CCCN3)c2C(=O)c2c1c(O)c1ccccc1c2O",
    "TGI": "1.52 µM"
  },
  {
    "COMPOUND": "COc1ccc(-c2c(C#N)c(N)n(C3OCC(O)C(O)C3O)c(=S)c2C#N)cc1 (centres undefined)",
    "TGI": "> 100 µM"
  },
  {
    "COMPOUND": "Cc1cc(S(=O)(=O)Nc2nnc(-c3ccco3)c(-c3ccco3)n2)c(SCc2ccccc2)cc1Cl",
    "TGI": "50.4 µM"
  },
  {
    "COMPOUND": "CCCCn1c(C)c(C)c2c1NN=C(C#N)S2(=O)=O",
    "TGI": "> 100 µM"
  },
  {
    "COMPOUND": "O=S(=O)(O)c1cc(S(=O)(=O)O)c2c(N=Nc3ccccc3)c(O)ccc2c1",
    "TGI": "> 100 µM"
  },
  {
    "COMPOUND": "CC(C)C(=O)CC(Sc1ccc(N)cc1)c1ccccc1 (centres undefined)",
    "TGI": "> 100 µM"
  },
  {
    "COMPOUND": "CC1(C)C2CC1C(/C=N\\OCC(=O)O)=CC2=O (centres undefined)",
    "TGI": "> 100 µM"
  },
  {
    "COMPOUND": "COc1nc(N)nc2c1n(C)c[n+]2C",
    "TGI": "> 100 µM"
  },
  {
    "COMPOUND": "CSC1=C(C)S/C(=C\\c2ccc(/C=C3\\SC(C)=C(SC)S3)cc2)S1",
    "TGI": "> 100 µM"
  },
  {
    "COMPOUND": "C=C(CN1CCc2ccccc2C1)c1ccc(/C=C/C(=O)Nc2ccccc2N)cc1",
    "TGI": "> 100 µM"
  },
  {
    "COMPOUND": "O=c1oc2ccccc2c(Cl)c1Cl",
    "TGI": "4.73 µM"
  },
  {
    "COMPOUND": "CC(C)OP(=O)(OC(C)C)c1nn(-c2ccc([N+](=O)[O-])cc2)c(=N)s1",
    "TGI": "> 100 µM"
  },
  {
    "COMPOUND": "CN(O)C(=O)c1ccc(OCc2cccc(Cl)c2)cc1",
    "TGI": "> 66.5 µM"
  },
  {
    "COMPOUND": "O=C(Nc1ncc([N+](=O)[O-])s1)c1cccc([N+](=O)[O-])c1",
    "TGI": "9.87 µM"
  },
  {
    "COMPOUND": "Cc1c2cc[n+](C)cc2c(C)c2c1[nH]c1ccc(OC(C)C)cc12",
    "TGI": "> 100 µM"
  },
  {
    "COMPOUND": "COc1cccc(N2C(=O)CSC2c2c[nH]c3ccccc23)c1 (centres undefined)",
    "TGI": "> 100 µM"
  },
  {
    "COMPOUND": "COP(=N[Si](C)(C)C)(OC)OC",
    "TGI": "> 100 µM"
  },
  {
    "COMPOUND": "COC1=C(OC)C(=O)c2cc(SC)c(=O)c(SC)cc2C1=O",
    "TGI": "40.5 µM"
  },
  {
    "COMPOUND": "CC(C)/C(Cl)=N/OC(NC(=O)Nc1ccc(Cl)c(Cl)c1)(C(F)(F)F)C(F)(F)F",
    "TGI": "31.3 µM"
  },
  {
    "COMPOUND": "COC(=O)C1C(O)C(C)C(O)C(C)/C=C\\C=C(C)C(=O)Nc2c(C)c(OC(C)=O)c3c(c2O)C(=O)C(C)=C2OCOC(=C23)C(C)=CC(C)(O)C(O)C(C)C1O (centres undefined)",
    "TGI": "> 100 µM"
  },
  {
    "COMPOUND": "CC12CC(=O)OC(Cc3ccccc31)O2 (centres undefined)",
    "TGI": "> 100 µM"
  },
  {
    "COMPOUND": "O=C(c1ccccc1)c1ccc2cccc(O)c2n1",
    "TGI": "> 100 µM"
  },
  {
    "COMPOUND": "O=C1C2c3[nH]c4ccccc4c3C3CCSCC3C2C(=O)N1c1ccccc1 (centres undefined)",
    "TGI": "> 100 µM"
  }
]
